# ASSAY PROTOCOL: 14-day daily oral dose safety assessment in rats
# Type: in vivo
# ASSAY SETUP: female, rat, in vivo, po, 100 mg/kg
ENDPOINT: AUC at 14 days (µM·h)
Give bare numbers, in µM·h.

**Q:** GET /values?readout=AUC at 14 days&item= CNc1nc(Nc2ccc(-n3cnc(C)n3)c(OC)c2)nc2c1CC[C@H]2c1ccc(F)cc1
**A:** 508
